# TARGET UNDER TEST: SARS-CoV-2 full length spike protein (wild-type), conjugated to optically encoded beads (SARS-CoV-2), P0DTC2
# PARTICULARS: remark: other sources report otherwise
# median fluorescence fold over isotype (fold over isotype) per record follows
Quick one: just the number, no unit, thanks!

# annotated cases, reported median fluorescence fold over isotype (fold over isotype) shown
antibody 507 (antibody, V domains shown) VH: QVQLQESGPGLVKPSGTLSLTCAVSGGSISSSNWWSWVRQPPGKGLEWIGEIYHSGNTNYNPSLKSRVTISVDKSKNQFSLKLSSVTAADTAVYYCARREWLRLFDYWGQGTLVTVSS VL: QSALTQPASVSGSPGQSITISCTGTSSDVGSYNLVSWYQQHPGKAPKLMIYEVSKRPSGVSNRFSGSKSGNTASLTISGLQAEDEADYYCCSYAGSSTYVFGTGTKVTVL	571
antibody 505 (antibody, V domains shown) VH: EVQLVESGGGLVKPGGSLRLSCAASGFTFSSYSMNWVRQAPGKGLEWVSSISSSSSYIYYADSVKGRITISRDNAKNSLYLQMNSLRAEDTAVYYCAREYPNFRAEWLLSPYGMDVWGQGTTVTVSS VL: QSALTQPASVSGSPGQSITISCTGTSSDVGSYNLVSWYQQHPGKAPKLMIYEVSKRPSGVSNRFSGSKSGNTASLTISGLQAEDEADYYCCSYAGSSTSVKVFGTGTKVTVL	658
antibody 538 (antibody, V domains shown) VH: QLQLQESGPGLVKPSETLSLTCTVSGGSISSSSYYWGWIRQPPGKGLEWIGSINYSGSTYYNPSLKSRVTISVDTSKNQFSLKLSSVTAADTAVYYCARYHDYGDDYWGQGTLVTVSS VL: QLVLTQSPSASASLGASVKLTCTLSSGHSRYAIAWHQQQPEKGPRYLMKLNSDGSHSKGDGIPDRFSGSSSGAERYLTISSLQSEDEADYYCQTWGTGIQVFGGGTKLTVL	607

Q) // Input: antibody 551 (antibody, V domains shown) VH: EVQLVESGGGLVQPGGSLRLSCAASGFTFSSYWMSWVRQAPGKGLEWVANINQDGSDKYYVDSVKGRFTISRDNAKNSLYLQMNSLRAEDTAVYYCARAPGWAAAPTFDYWGQGTLVTVSS VL: QSALTQPRSVSGSPGQSVTISCTGTSSDVGGYNYVSWYQQHPGKAPKFMIYDVSKRPSGVPDRFSGSKSGNTASLTISGLQAEDEADYYCCSYAGSYTLVVFGGGTKLTVL . Output its median fluorescence fold over isotype (fold over isotype) only.
A) 649
